Catalogue of compounds with associated Ki
assay: Displacement of [3H]-ditolylguanidine from sigma 2 receptor PCP binding site in rat liver membrane; type: cell membranes

- COMPOUND: "Cc1ccccc1NC(=N)Nc1ccccc1C"
  Ki: "0.064 µM"

Value lookup for Ki; key = c1ccc(CNCC[C@@H]2CCO[C@H](c3ccccc3)O2)cc1 (racemic)
0.092 µM

Value lookup for Ki; key = CNCC[C@@H]1CCO[C@H](c2ccccc2)O1 (racemic)
> 10 µM

Value lookup for Ki; key = CN(C)CC[C@@H]1CCOC(c2ccccc2)(c2ccccc2)O1
> 10 µM

Value lookup for Ki; key = NCCC[C@@H]1CCOC(c2ccccc2)(c2ccccc2)O1
> 10 µM

Value lookup for Ki; key = NCC[C@@H]1CCOC(c2ccccc2)(c2ccccc2)O1
> 10 µM

Value lookup for Ki; key = CC[C@@]1(c2ccccc2)OCC[C@@H](CCNC)O1 (relative stereo)
> 10 µM

Value lookup for Ki; key = c1ccc(CNCCC[C@@H]2CCO[C@H](c3ccccc3)O2)cc1 (relative stereo)
3.89 µM

Value lookup for Ki; key = CNCC[C@@H]1CCOC(c2ccccc2)(c2ccccc2)O1
> 10 µM

Value lookup for Ki; key = CC[C@@]1(c2ccccc2)OCC[C@@H](CCN(C)C)O1 (relative stereo)
> 10 µM

---

assay: Displacement of [3H]-ditolylguanidine from sigma 2 receptor PCP binding site in rat liver membrane; format: cell membranes
Catalogue of compounds with associated log10(Ki)
Transform log10 | Measure Ki | Unit nM

Past entries and their recorded results:
- COMPOUND: "c1ccc(CNCC[C@@H]2CCOC(c3ccccc3)(c3ccccc3)O2)cc1"
  log10(Ki): 3.44
- COMPOUND: "CNCCC[C@@H]1CCO[C@H](c2ccccc2)O1 (relative stereo)"
  log10(Ki): 3.80
- COMPOUND: "NCCC[C@@H]1CCO[C@H](c2ccccc2)O1 (relative stereo)"
  log10(Ki): 2.76

Value lookup for log10(Ki); key = CC[C@@]1(c2ccccc2)OCC[C@@H](CCNCc2ccccc2)O1 (relative stereo)
2.96

Value lookup for log10(Ki); key = CC[C@@]1(c2ccccc2)OCC[C@@H](CCCN)O1 (relative stereo)
2.73

Value lookup for log10(Ki); key = CN(C)CC[C@@H]1CCO[C@H](c2ccccc2)O1 (racemic)
3.26

---

test: Displacement of [3H]-(+)-MK801 from NMDA receptor PCP binding site in pig cortex membrane after 90 mins by liquid scintillation counting; assay type: cell membranes, Sus scrofa
Could you mark each record yes (1) if its Ki falls strictly under 200 nM, and no (0) if it equals or exceeds it?

- COMPOUND: "CNCC[C@@H]1CCO[C@H](c2ccccc2)O1 (racemic)"
  CLASS ASSIGNMENT: "no (0)"

Regarding CN(C)CC[C@@H]1CCO[C@H](c2ccccc2)O1 (racemic) , kindly confirm whether its Ki is beneath 200 nM.
no (0)

---

test: Displacement of [3H]-(+)-MK801 from NMDA receptor PCP binding site
REPORTED PROPERTY: pKi
Scale note: pKi = -log10(concentration in M).

- COMPOUND: "c1ccc(C2(c3ccccc3)OC[C@H]([C@@H]3CCCCN3)O2)cc1 [DEXOXADROL]"
  pKi: 7.64

// below: pKi requested for another compound
Value lookup for pKi; key = CC[C@]1(c2ccccc2)OC[C@H]([C@@H]2CCCCN2)O1 [ETOXADROL]
7.70

---

experiment: Displacement of [3H]-(+)-MK801 from NMDA receptor PCP binding site in pig cortex membrane after 90 mins by liquid scintillation counting; type: cell membranes, Sus scrofa
REPORTED PROPERTY: Ki (µM)
Just the number please, in µM, no unit attached.

- CHEMICAL STRING: "CC[C@]1(c2ccccc2)OC[C@H]([C@@H]2CCCCN2)O1"
  READING: 0.022

Value lookup for Ki; key = CNCC[C@@H]1CCOC(c2ccccc2)(c2ccccc2)O1
6.87

---

biological target: Sigma non-opioid intracellular receptor 1 (Cavia porcellus); test: Displacement of [3H]-(+)-pentazocine from sigma 1 receptor PCP binding site in guinea pig brain by liquid scintillation counting
Sequence (Q60492 whole entry): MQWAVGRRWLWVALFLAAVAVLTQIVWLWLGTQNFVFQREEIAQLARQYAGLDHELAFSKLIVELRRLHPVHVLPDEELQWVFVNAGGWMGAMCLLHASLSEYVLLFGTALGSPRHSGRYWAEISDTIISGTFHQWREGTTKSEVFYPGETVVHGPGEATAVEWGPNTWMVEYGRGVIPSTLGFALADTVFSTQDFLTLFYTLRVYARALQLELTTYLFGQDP
Catalogue of molecules with associated Ki
Just the number please, in nM, no unit attached.

Past entries and their recorded results:
- MOLECULE: "NCC[C@@H]1CCO[C@H](c2ccccc2)O1 (racemic)"
  TESTED SYSTEM: "Sigma non-opioid intracellular receptor 1 (Cavia porcellus)"
  MEASUREMENT UNITS: "nM"
  READING: 165
- MOLECULE: "c1ccc(CNCCC[C@@H]2CCO[C@H](c3ccccc3)O2)cc1 (relative stereo)"
  TESTED SYSTEM: "Sigma non-opioid intracellular receptor 1 (Cavia porcellus)"
  MEASUREMENT UNITS: "nM"
  READING: 164
- MOLECULE: "CC[C@@]1(c2ccccc2)OCC[C@@H](CCNC)O1 (relative stereo)"
  TESTED SYSTEM: "Sigma non-opioid intracellular receptor 1 (Cavia porcellus)"
  MEASUREMENT UNITS: "nM"
  READING: 856
- MOLECULE: "CC[C@@]1(c2ccccc2)OCC[C@@H](CCCN)O1 (relative stereo)"
  TESTED SYSTEM: "Sigma non-opioid intracellular receptor 1 (Cavia porcellus)"
  MEASUREMENT UNITS: "nM"
  READING: 6450
- MOLECULE: "c1ccc(CNCC[C@@H]2CCO[C@H](c3ccccc3)O2)cc1 (racemic)"
  TESTED SYSTEM: "Sigma non-opioid intracellular receptor 1 (Cavia porcellus)"
  MEASUREMENT UNITS: "nM"
  READING: 19

Value lookup for Ki; key = c1ccc(CNCC[C@@H]2CCOC(c3ccccc3)(c3ccccc3)O2)cc1
320

Value lookup for Ki; key = CN(C)CC[C@@H]1CCO[C@H](c2ccccc2)O1 (racemic)
1650

---

test: Displacement of [3H]-(+)-MK801 from NMDA receptor PCP binding site in pig cortex membrane after 90 mins by liquid scintillation counting; type: cell membranes, Sus scrofa
Could you mark each record satisfied if its Ki falls strictly under 300 nM, and not satisfied if it equals or exceeds it?

The following compounds have reported results that may help.
- COMPOUND: "c1ccc(C2(N3CCCCC3)CCCCC2)cc1"
  CLASS ASSIGNMENT: "satisfied"
- COMPOUND: "CC[C@]1(c2ccccc2)OC[C@H](CCN)O1"
  CLASS ASSIGNMENT: "satisfied"
- COMPOUND: "CC[C@@]1(c2ccccc2)OCC[C@@H](CCNC)O1 (relative stereo)"
  CLASS ASSIGNMENT: "satisfied"
- COMPOUND: "CC[C@@]1(c2ccccc2)OCC[C@@H](CCCN)O1 (relative stereo)"
  CLASS ASSIGNMENT: "not satisfied"
- COMPOUND: "c1ccc(CNCC[C@@H]2CCO[C@H](c3ccccc3)O2)cc1 (racemic)"
  CLASS ASSIGNMENT: "not satisfied"
- COMPOUND: "c1ccc(CNCCC[C@@H]2CCO[C@H](c3ccccc3)O2)cc1 (relative stereo)"
  CLASS ASSIGNMENT: "not satisfied"
- COMPOUND: "NCCC[C@@H]1CCO[C@H](c2ccccc2)O1 (relative stereo)"
  CLASS ASSIGNMENT: "not satisfied"
- COMPOUND: "CC[C@]1(c2ccccc2)OCC[C@@H](CN)O1"
  CLASS ASSIGNMENT: "satisfied"
- COMPOUND: "CC[C@@]1(c2ccccc2)OCC[C@@H](CCNCc2ccccc2)O1 (relative stereo)"
  CLASS ASSIGNMENT: "not satisfied"
- COMPOUND: "NCCC[C@@H]1CCOC(c2ccccc2)(c2ccccc2)O1"
  CLASS ASSIGNMENT: "not satisfied"

Regarding NCC[C@@H]1CCOC(c2ccccc2)(c2ccccc2)O1 , kindly confirm whether its Ki is beneath 300 nM.
not satisfied

Regarding NCC[C@@H]1CCO[C@H](c2ccccc2)O1 (racemic) , kindly confirm whether its Ki is beneath 300 nM.
not satisfied

Regarding c1ccc(CNCC[C@@H]2CCOC(c3ccccc3)(c3ccccc3)O2)cc1 , kindly confirm whether its Ki is beneath 300 nM.
not satisfied

Regarding NC[C@@H]1CCOC(c2ccccc2)(c2ccccc2)O1 , kindly confirm whether its Ki is beneath 300 nM.
not satisfied

Regarding CC[C@@]1(c2ccccc2)OCC[C@@H](CCN(C)C)O1 (relative stereo) , kindly confirm whether its Ki is beneath 300 nM.
not satisfied

Regarding CN(C)CCC[C@@H]1CCO[C@H](c2ccccc2)O1 (relative stereo) , kindly confirm whether its Ki is beneath 300 nM.
not satisfied

Regarding CC[C@@]1(c2ccccc2)OCC[C@@H](CCN)O1 (relative stereo) , kindly confirm whether its Ki is beneath 300 nM.
satisfied

Regarding CNCCC[C@@H]1CCO[C@H](c2ccccc2)O1 (relative stereo) , kindly confirm whether its Ki is beneath 300 nM.
not satisfied

Regarding NCC[C@H]1COC(c2ccccc2)(c2ccccc2)O1 , kindly confirm whether its Ki is beneath 300 nM.
not satisfied

Regarding NCC[C@@H]1CCOC2(O1)C1CC3CC(C1)CC2C3 (stereo not given in full) , kindly confirm whether its Ki is beneath 300 nM.
not satisfied
